The reported measurements were obtained from the supplement of paper PMC9233669.

Entries annotated with measured self-aminoacylation
Test system: biotinyl-Val-oxazolone
Test: self-aminoacylation, catalytic enhancement (BVO) (fold over background); higher = more active; k-Seq, kA / k0A0; sequences stand for … in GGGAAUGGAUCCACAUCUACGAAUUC…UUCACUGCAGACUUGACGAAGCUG
This sample holds only a part of the variants without activity.
Give the figure only, with no unit attached.

Solved entries:
Sequence String	Recorded Endpoint	Assay Result
AUUACCAUGGUCGUCGAGUGA [Fam2.1 aminoacylation ribozyme variant]	self-aminoacylation	1.08
CCACACUUCAAGCAUUAGGUC [Fam1B.1 aminoacylation ribozyme variant]	self-aminoacylation	0.645
AUUCACAUAGGUCAGCGGGUG [Fam2.2 aminoacylation ribozyme variant]	self-aminoacylation	2.91
CCACACUUCAAGCAAUCGACC [Fam1B.1 aminoacylation ribozyme variant]	self-aminoacylation	0.751

// self-aminoacylation value for CCACACUUUAAGCAAUCGGUA [Fam1B.1 aminoacylation ribozyme variant] : 0.95

Form field self-aminoacylation, entry UUACUACAAACAAUCGGUCUG [Fam1A.1 aminoacylation ribozyme variant] : 0.833

Entry AUUACCCUGGUCAUCGCGCGA [Fam2.1 aminoacylation ribozyme variant] , self-aminoacylation reported as 5.24

So for CUACUUCAAACAAUCGUUCUU [Fam1A.1 aminoacylation ribozyme variant] , the logged self-aminoacylation turned out to be 0.729
